tested on: RXF 393 renal; assay: NCI-60 one-dose screen, 48 h; details: 10 µM unless noted
This is part of a sample that, as a whole, favours compounds with a hit. Of some 83,000 tested, about 20% had one in any assay. Activity calls are given as the source filed them. Rule for the calls: active = growth percent below 10; inactive = the rest.
Possible outcomes: T (active), F (inactive)

INSERT INTO results (compound, category) VALUES
  ('CNC(=O)CCN1CCN(CC/C=C2\c3ccccc3Sc3ccc(Cl)cc32)CC1', 'F'),
  ('Cc1ccc(N2CCN(C(=S)c3cccs3)CC2)cc1', 'F'),
  ('N=C(N)c1ccc(-c2ccc(-c3cncc4ccccc34)s2)s1', 'T'),
  ('O=C1/C(=C2/C=Nc3ccccc32)N(O)c2ccccc21', 'F'),
  ('C[C@H]1[C@H]2[C@H]3CC[C@@H]4[C@@]5(C)C/C(=C/c6ccco6)C(=O)C(C)(C)[C@@H]5CC[C@@]4(C)[C@]3(C)CC[C@]23CO[C@]1(C)[C@@H](C(=O)/C=C\c1ccco1)C3', 'F'),
  ('COc1ccc(C2c3ccc4ccccc4c3Oc3nc(C)[nH]c(=O)c32)cc1 (stereo not drawn)', 'F'),
  ('CCOC(CN=Cc1cc(C)c2[nH]c3ccccc3c2c1C)OCC', 'F'),
  ('O=c1ccn2nc3ccccc3c2[nH]1', 'F'),
  ('O=c1c2c3c(sc2n2c(-c4cn(-c5ccccc5)nc4-c4ccc(Cl)cc4)nnc2n1Cc1ccccc1)CCCC3', 'F'),
  ('O=S(=O)(NCCCNc1cc(-c2c(-c3cccc(O)c3)nc3sccn23)ccn1)c1cccc(Cl)c1', 'F'),
  ('Clc1ccc(-c2c3ccc(=[N+]4CCCCC4)cc-3oc3cc(N4CCCCC4)ccc23)cc1', 'T'),
  ('CCCCCCCCn1ccc2cc(NC(=O)Cn3cc(CN4CCCC4)nn3)ccc21', 'F'),
  ('c1cc2ccc3cc2cc1CNCCOCCNCc1ccc2ccc(cc2c1)CNCCOCCNC3', 'T'),
  ('CCN(CC)CCCNc1ccc(Nc2ccc(OC)cc2)cc1', 'F'),
  ('COc1cc(C2CC(c3ccc(Nc4ccnc5cc(Cl)ccc45)cc3)=NN2C=O)cc(OC)c1OC (stereo not drawn)', 'F'),
  ('COc1ccc2[nH]c(O)c(/C=c3/cc4c(c(-c5cc(OC)c(OC)c(OC)c5)n3)=Nc3ccccc3-4)c2c1', 'F'),
  ('COc1ccc(-c2cc(-c3cc(OC)c(OC)c(OC)c3)c(C#N)c(N3CCOCC3)n2)cc1O', 'F'),
  ('C=CCSc1nc2ccccc2cc1/C=N/O', 'F'),
  ('Cc1cc(NCc2cc(Nc3ccnc4cc(Cl)ccc34)ccc2F)nc(N2CCSCC2)n1', 'T'),
  ('CNC(=O)NCC1OC(n2cnc3c(NC(=O)Nc4ccccc4)ncnc32)C(O[Si](C)(C)C(C)(C)C)C1CC(=O)N(C)OC (stereo not drawn)', 'T'),
  ('COC(=O)[C@]12CC[C@@H](C)[C@H](C)[C@@H]1C1=CC[C@@H]3[C@@]4(C)C(C=O)=C[C@@](C)(COC(=O)c5ccco5)[C@@H]4C(=O)C[C@@]3(C)[C@]1(C)CC2', 'F'),
  ('N=c1sc(Cc2ccc(Cl)cc2)cn1CC(=O)c1ccc(F)cc1', 'F'),
  ('COc1ccc(-c2nc(SCC(=O)Nc3nc(-c4ccccc4)cs3)[nH]c(=O)c2C#N)cc1', 'F'),
  ('Cc1ccc(Cc2cnc(NC(=O)c3ccc4noc(-c5ccccc5)c4c3)s2)cc1', 'T'),
  ('CCN1CCN(c2cc(C)nc(NCc3cc(Nc4ccnc5cc(Cl)ccc45)ccc3F)n2)CC1', 'F'),
  ('COc1ccc(C2C(c3nn[nH]n3)=C(N)Oc3c2ccc2ccccc32)cc1 (stereo not drawn)', 'F'),
  ('Cc1ccc(NS(=O)(=O)c2ccc3c(c2)C2OCCC2C(c2ccc(C(=O)C(C)C)cc2)N3)cc1C (stereo not drawn)', 'F'),
  ('CCN1CCN(c2nc(C)cc(NCc3cc(Nc4ccnc5cc(Cl)ccc45)ccc3F)n2)CC1', 'T'),
  ('O=C(/C=C/c1c(Cl)nc2sccn12)c1nccs1', 'F'),
  ('O=c1oc2ccccc2c(Cl)c1Cl', 'F'),
  ('CCN(CC)S(=O)(=O)c1cccc(-c2ccc3c(NC(=O)C4CC4)n[nH]c3c2)c1', 'T'),
  ('COc1ccc(-c2nc(SCCC(C)C)nc(N/N=C\c3cccc(Cl)c3)c2C#N)cc1', 'F'),
  ('Cc1nn(-c2ccccc2)c(Oc2ccc(Cl)cc2)c1/C=N\N=c1/sc2ccccc2n1C', 'F'),
  ('CC(=O)N1N=C(c2ccc(Nc3nc(Nc4ccc(F)cc4)nc(Nc4ccc(F)cc4)n3)cc2)CC1c1cccc([N+](=O)[O-])c1 (stereo not drawn)', 'F'),
  ('COc1ccc(/C=C/c2c(C(=O)/C=C/c3cccs3)c(C)nc3ccccc23)cc1', 'F'),
  ('O=C(NCCCNc1cc(-c2cn(-c3ccccc3)nc2-c2cccc(O)c2)ccn1)c1ccc(F)cc1', 'F'),
  ('Cn1c(=O)c2c(nc(Cl)n2CCl)n(C)c1=O', 'F'),
  ('COc1cc2c(cc1-c1c(C)noc1C)ncc1nc(C3CCCCC3)n(C3CCC(OC(F)F)CC3)c12 (stereo not drawn)', 'F');

----------
system: HT29 colon; assay: NCI-60 one-dose screen, 48 h (100 = growth as untreated, 0 = no growth, -100 = all killed); settings: 10 µM unless noted
This is part of a sample that, as a whole, favours compounds with a hit. Of some 83,000 tested, about 20% had one in any assay.
readout: growth (%)

INSERT INTO results (molecule, unit_info, assay_result) VALUES
  ('Cn1c(=O)c2[nH]c(NN)nc2n(C)c1=O', '%', 105),
  ('O=[N+]([O-])c1ccc(-c2cc(-c3ccc(Nc4nc(Nc5ccc(Cl)cc5)nc(Nc5ccc(Cl)cc5)n4)cc3)no2)cc1', '%', 16.5),
  ('COc1ccc(-c2nc3c(c(=O)n2C(C)=O)C(c2ccc(Cl)cc2)c2sc4c(Cl)cccc4c2O3)cc1 (stereo not given)', '%', -49.4),
  ('CCc1ccccc1-n1c(-c2ccc(Cl)cc2)cc(-c2ccc(OC)cc2)c(C#N)c1=O', '%', 103),
  ('COc1ccc(-c2cc(-c3cc(OC)c(OC)c(OC)c3)c(C#N)c(N3CCOCC3)n2)cc1O', '%', 108),
  ('Cc1ccc(Cl)c(NS(=O)(=O)c2ccc(-c3cnc(C4CC4)o3)cc2)c1', '%', 3.93),
  ('COc1ccc(NC(=O)c2nc(-c3cc(OC)c(OC)c(OC)c3)n(-c3cccc4ccccc34)n2)cc1OC', '%', 30),
  ('N#Cc1c(-c2cccc(Cl)c2)cc(-c2cccc(F)c2)[nH]c1=O', '%', 107),
  ('COc1ccc(-c2nc(SCCC(C)C)nc(N/N=C\c3ccccc3O)c2C#N)cc1', '%', 103),
  ('N#Cc1c(N2CCNCC2)nc2sc3cc(Cl)c(Cl)cc3n2c1=N', '%', 98.7),
  ('Nc1cc2c3c(cccc3c1)C(=O)N(CCN1CCCC1)C2=O', '%', 26.2),
  ('C=C1C(=O)O[C@H]2[C@H]1CC/C(COC(=O)C(=O)c1cn(C)c3ccc(OC)cc13)=C\CC[C@@]1(C)O[C@@H]21', '%', -52.7),
  ('CC/C=C1/C(=O)C=C[C@@H]1C/C=C\CCCC(=O)O', '%', 78.9),
  ('CNS(=O)(=O)c1n[nH]nc1-c1cc(C(C)(C)C)c(O)c(C(C)(C)C)c1', '%', 108),
  ('Clc1cc(Cl)cc(Nc2ccc3cc(OCCCN4CCOCC4)ccc3n2)c1', '%', -39.5),
  ('COc1ccc(NC(=O)CSc2nnc(-c3cc(-c4ccccc4)nc4ccccc34)n2-c2ccccc2)cc1', '%', 106),
  ('Cc1ccccc1NC(=O)N/C(N)=N/c1nc(C)c(C)s1', '%', 16.6),
  ('O=C(/C=C/c1cccc(O)c1)c1cccc(-n2cc(-c3ccc4ccccc4c3)[nH]c2=O)c1', '%', -72.7),
  ('Cc1c(C(=O)N[C@@H](Cc2ccccc2)C(=O)C(=O)NCCc2ccccc2)[nH]c2ccccc2c1=O', '%', 105),
  ('Cc1ccc2c(c1)Sc1c(ccc3ccccc13)N2', '%', 73.3);

----------
test system: MALME-3M melanoma; assay: NCI-60 one-dose screen, 48 h (100 = growth as untreated, 0 = no growth, -100 = all killed); conditions: 10 µM unless noted
Compounds without any hit were thinned out: in the full panel of roughly 83,000, 20% have a hit.
readout: growth (%)

INSERT INTO results (structure_smiles, unit_info, assay_result) VALUES
  ('Cn1c(=O)c2[nH]c(NN)nc2n(C)c1=O', '%', 135),
  ('Cc1cc(=O)[nH]c(N=Nc2c(O)[nH]c3ccccc23)n1', '%', 127),
  ('CNC(=O)CCN1CCN(CC/C=C2\c3ccccc3Sc3ccc(Cl)cc32)CC1', '%', 98),
  ('O=C1/C(=C2/C=Nc3ccccc32)N(O)c2ccccc21', '%', 56.3),
  ('COc1ccc(-c2cc(-c3cc(OC)ccc3OC)nc(SCC(=O)c3ccccc3)c2C#N)cc1', '%', 88.9);
